System: 186277-243-T-J2-PDC complex spheroids, viability;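 also: spheroids exposed to compounds for 7 days before viability read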
Run Description: Anticancer human tumor 186277-243-T-J2-PDC patient-derived colon adenocarcinoma cell line growth inhibition [RAS]
Conditions: second compound 1 µM; first compound 0.0316 µM; stronger effect = lower value
Overview of recorded viability, T/C for various compounds
Write the value in % as a bare number.

CC(=O)OC12COC1CC(O)C1(C)C(=O)C(O)C3=C(C)C(OC(=O)C(O)C(NC(=O)OC(C)(C)C)c4ccccc4)CC(O)(C(OC(=O)c4ccccc4)C21)C3(C)C (stereo not drawn) + C#Cc1c(F)ccc2cc(O)cc(-c3ncc4c(N5CC6CCC(C5)N6)nc(OCC56CCCN5CC(F)C6)nc4c3F)c12 ... 4.79
Cc1nc(N2CCC3(CC2)COC(C)C3N)c(CO)nc1Sc1ccnc(N)c1Cl (stereo not drawn) + C#Cc1c(F)ccc2cc(O)cc(-c3ncc4c(N5CC6CCC(C5)N6)nc(OCC56CCCN5CC(F)C6)nc4c3F)c12 ... 12.2

In the following, a different compound is considered.
Entry CCN1CCN(Cc2ccc(Nc3ncc(F)c(-c4cc(F)c5nc(C)n(C(C)C)c5c4)n3)nc2)CC1 + C#Cc1c(F)ccc2cc(O)cc(-c3ncc4c(N5CC6CCC(C5)N6)nc(OCC56CCCN5CC(F)C6)nc4c3F)c12 : reported viability, T/C = ? 14.2
